pIC50: −log10 of the molar value. Structures can show the parent of a compound that is named as a salt.
As a worked illustration, we turn to pIC50 data collected for human somatostatin receptor protein subtype 5 (SSTR5) (Homo sapiens).
readout_kind: pIC50

1) N=C(N)NCc1cccc(C(=O)N(Cc2cccc(-c3ccccc3C(=O)NCCN)c2)Cc2cccc3ccccc23)c1 [Example 325, trifluoroacetate]
8.22
2) NCCNC(=O)c1ccccc1-c1cccc(CN(Cc2cccc3ccccc23)C(=O)c2ccc(S(N)(=O)=O)cc2)c1 [Example 328, trifluoroacetate]
8.52
